Where do these numbers come from? They come from ChEMBL document CHEMBL5113480.

experiment: Selectivity index, ratio of CC50 for cytotoxicity against human MT4 cells to EC50 of Anti-HIV activity against HIV-1 IIIB infected in human MT4 cells; assay type: toxicity, cell-based; conditions: read-out: Ratio CC50/EC50
MEASURED PARAMETER: selectivity ratio

[[record]]
smiles_input = "Cc1cccc(-c2ccc(Oc3c(C(F)(F)F)ccn(Cc4n[nH]c(=O)n4C)c3=O)c(Cl)c2)c1"
measured_parameter = "selectivity ratio"
measurement = "< 1"

[[record]]
smiles_input = "Cn1c(Cn2ccc(C(F)(F)F)c(Oc3ccc(-c4cccc(F)c4)cc3Cl)c2=O)n[nH]c1=O"
measured_parameter = "selectivity ratio"
measurement = "< 1"

[[record]]
smiles_input = "Cn1c(Cn2ccc(C(F)(F)F)c(Oc3cc(C#N)cc(-c4ccc(F)cc4)c3)c2=O)n[nH]c1=O"
measured_parameter = "selectivity ratio"
measurement = "> 4840"

